assay info: Solubility of tetrahydrate Form S3 in different solvents
Format: physicochemical
condition description: solvent H2O/iPrOH (1:1)
attribute measured: solubility (mg/mL)

molecule="CC(C)[C@H]1C(=O)N[C@@H](CCCN=C(N)N)C(=O)NCC(=O)N[C@@H](CC(=O)O)C(=O)N[C@H](Cc2ccccc2)C(=O)N1C [crystalline form S3, cyclo-(Arg-Gly-Asp-DPhe-NMe-Val)]" recorded_value=22.9

----------
assay info: Solubility of tetrahydrate Form S3 in different solvents
Type: physicochemical
condition description: solvent H2O/Acetone (1:1)
attribute measured: solubility (mg/mL)

molecule="CC(C)[C@H]1C(=O)N[C@@H](CCCN=C(N)N)C(=O)NCC(=O)N[C@@H](CC(=O)O)C(=O)N[C@H](Cc2ccccc2)C(=O)N1C [crystalline form S3, cyclo-(Arg-Gly-Asp-DPhe-NMe-Val)]" recorded_value=22.7
